- MEASUREMENT_DESCRIPTION: Population pharmacokinetic analysis in patients
- Format: in vivo, human
- CONDITIONS_USED: human, plasma, intravenous; at steady state; read-out: volume of distribution (Vss)
QUANTITY_KIND: Vd (L)

>>> numeric_value("CO[C@H]1C(=O)[C@]2(C)[C@@H](OC)C[C@H]3OC[C@@]3(OC(C)=O)[C@H]2[C@H](OC(=O)c2ccccc2)[C@]2(O)C[C@H](OC(=O)[C@H](O)[C@@H](NC(=O)OC(C)(C)C)c3ccccc3)C(C)=C1C2(C)C [cabazitaxel]")
4860

* * *

- MEASUREMENT_DESCRIPTION: Population pharmacokinetic analysis in patients
- Type: in vivo, human
- CONDITIONS_USED: male, human, plasma, iv, 25 mg/m2, intravenous 25 mg/m^2 every 3 weeks, patients with metastatic prostate cancer; CV 34%
QUANTITY_KIND: AUC (ng·h/mL)

>>> numeric_value("CO[C@H]1C(=O)[C@]2(C)[C@@H](OC)C[C@H]3OC[C@@]3(OC(C)=O)[C@H]2[C@H](OC(=O)c2ccccc2)[C@]2(O)C[C@H](OC(=O)[C@H](O)[C@@H](NC(=O)OC(C)(C)C)c3ccccc3)C(C)=C1C2(C)C")
991
